# test_system: Isoform 1 of Nicotinamide phosphoribosyltransferase (Homo sapiens, UniProt P43490)
# Construct: endogenous in cells; host or cells: HeLa S3
# Sequence (P43490 whole entry, canonical isoform): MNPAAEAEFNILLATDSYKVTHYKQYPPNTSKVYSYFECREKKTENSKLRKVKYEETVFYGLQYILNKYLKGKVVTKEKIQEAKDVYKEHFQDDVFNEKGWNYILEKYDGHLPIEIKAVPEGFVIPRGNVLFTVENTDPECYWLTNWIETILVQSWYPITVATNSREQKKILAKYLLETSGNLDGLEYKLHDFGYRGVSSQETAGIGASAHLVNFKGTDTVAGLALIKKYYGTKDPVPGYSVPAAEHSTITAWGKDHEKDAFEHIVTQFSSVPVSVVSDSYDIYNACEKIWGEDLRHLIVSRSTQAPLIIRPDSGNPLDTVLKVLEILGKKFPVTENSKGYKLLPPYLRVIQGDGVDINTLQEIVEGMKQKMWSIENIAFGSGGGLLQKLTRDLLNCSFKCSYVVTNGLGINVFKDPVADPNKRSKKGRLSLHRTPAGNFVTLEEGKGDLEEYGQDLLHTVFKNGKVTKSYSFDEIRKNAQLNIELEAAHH
# protocol_description: binding to immobilized V16742 (IVA1/IVA2, HeLa lysate, MS)
# measurement_setup: Experiment 1, read-out: Kd

{"chemical_smiles": "CC(C)n1c(=O)ccc2cnc(Nc3ccc(OCCN)cc3)nc21", "test_system": "Isoform 1 of Nicotinamide phosphoribosyltransferase (Homo sapiens, UniProt P43490)", "Kd, µM": 54.8}

====

# test_system: CDK7 (Homo sapiens)
# Construct: endogenous in cells; host or cells: HeLa S3
# Sequence (P50613 whole entry): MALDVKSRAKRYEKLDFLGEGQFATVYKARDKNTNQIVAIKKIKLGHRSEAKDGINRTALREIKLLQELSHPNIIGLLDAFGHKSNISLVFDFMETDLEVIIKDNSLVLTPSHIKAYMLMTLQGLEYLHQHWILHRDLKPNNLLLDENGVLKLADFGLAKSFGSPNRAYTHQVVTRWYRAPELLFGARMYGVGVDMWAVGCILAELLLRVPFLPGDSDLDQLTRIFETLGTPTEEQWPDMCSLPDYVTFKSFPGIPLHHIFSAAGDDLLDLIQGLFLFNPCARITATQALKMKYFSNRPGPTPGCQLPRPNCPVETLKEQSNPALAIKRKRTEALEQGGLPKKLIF
# protocol_description: binding to immobilized V16742 (IVA1/IVA2, HeLa lysate, MS)
# measurement_setup: Experiment 1, read-out: Kd

{"chemical_smiles": "CC(C)n1c(=O)ccc2cnc(Nc3ccc(OCCN)cc3)nc21", "Kd [µM]": 39.8}

====

# test_system: PKD2 (PRKD2) (Homo sapiens, UniProt Q9BZL6)
# Sequence (Q9BZL6 whole entry): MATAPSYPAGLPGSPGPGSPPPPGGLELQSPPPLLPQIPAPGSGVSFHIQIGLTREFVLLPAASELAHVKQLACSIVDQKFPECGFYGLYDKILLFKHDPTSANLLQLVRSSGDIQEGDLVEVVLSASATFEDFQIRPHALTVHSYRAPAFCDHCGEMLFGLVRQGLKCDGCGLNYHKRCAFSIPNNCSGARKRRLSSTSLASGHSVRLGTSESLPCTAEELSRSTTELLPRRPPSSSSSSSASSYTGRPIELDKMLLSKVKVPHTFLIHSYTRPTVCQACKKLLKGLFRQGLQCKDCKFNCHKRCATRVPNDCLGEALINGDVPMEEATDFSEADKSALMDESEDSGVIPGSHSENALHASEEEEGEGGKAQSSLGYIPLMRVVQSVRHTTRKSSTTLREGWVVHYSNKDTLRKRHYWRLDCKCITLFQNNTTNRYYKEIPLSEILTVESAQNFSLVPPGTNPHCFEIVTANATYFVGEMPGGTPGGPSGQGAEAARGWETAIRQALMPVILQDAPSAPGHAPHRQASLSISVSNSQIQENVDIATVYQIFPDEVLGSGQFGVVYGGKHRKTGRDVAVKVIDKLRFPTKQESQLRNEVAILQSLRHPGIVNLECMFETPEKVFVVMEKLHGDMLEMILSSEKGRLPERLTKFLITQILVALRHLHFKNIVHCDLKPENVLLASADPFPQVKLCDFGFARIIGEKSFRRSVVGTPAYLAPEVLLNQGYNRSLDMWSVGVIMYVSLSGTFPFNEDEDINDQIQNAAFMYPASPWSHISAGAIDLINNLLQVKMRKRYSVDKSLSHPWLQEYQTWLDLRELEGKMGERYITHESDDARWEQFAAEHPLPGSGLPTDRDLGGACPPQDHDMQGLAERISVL
# protocol_description: binding to AX14596 beads (HeLa lysate, SILAC MS)
recorded_endpoint: Ki (µM)

{"compound": "COc1cc2ncnc(Nc3ccc(F)c(Cl)c3)c2cc1OCCCN [AX14596]", "numeric_readout": 385}

====

# test_system: PITSLRE
# protocol_description: binding to immobilized V16742 (IVA1/IVA2, HeLa lysate, MS)
# Design: species or system human
# measurement_setup: average of two experiments, read-out: Kd Avg
pKd: −log10 of the molar value.

{"molecule": "CC(C)n1c(=O)ccc2cnc(Nc3ccc(OCCN)cc3)nc21 [V16742]", "pKd": 4.21}

====

# test_system: HGK/ZC1 (MAP4K4, IPI00604647) (Homo sapiens)
# Construct: endogenous in cells; host or cells: HeLa S3
# Sequence (O95819 whole entry): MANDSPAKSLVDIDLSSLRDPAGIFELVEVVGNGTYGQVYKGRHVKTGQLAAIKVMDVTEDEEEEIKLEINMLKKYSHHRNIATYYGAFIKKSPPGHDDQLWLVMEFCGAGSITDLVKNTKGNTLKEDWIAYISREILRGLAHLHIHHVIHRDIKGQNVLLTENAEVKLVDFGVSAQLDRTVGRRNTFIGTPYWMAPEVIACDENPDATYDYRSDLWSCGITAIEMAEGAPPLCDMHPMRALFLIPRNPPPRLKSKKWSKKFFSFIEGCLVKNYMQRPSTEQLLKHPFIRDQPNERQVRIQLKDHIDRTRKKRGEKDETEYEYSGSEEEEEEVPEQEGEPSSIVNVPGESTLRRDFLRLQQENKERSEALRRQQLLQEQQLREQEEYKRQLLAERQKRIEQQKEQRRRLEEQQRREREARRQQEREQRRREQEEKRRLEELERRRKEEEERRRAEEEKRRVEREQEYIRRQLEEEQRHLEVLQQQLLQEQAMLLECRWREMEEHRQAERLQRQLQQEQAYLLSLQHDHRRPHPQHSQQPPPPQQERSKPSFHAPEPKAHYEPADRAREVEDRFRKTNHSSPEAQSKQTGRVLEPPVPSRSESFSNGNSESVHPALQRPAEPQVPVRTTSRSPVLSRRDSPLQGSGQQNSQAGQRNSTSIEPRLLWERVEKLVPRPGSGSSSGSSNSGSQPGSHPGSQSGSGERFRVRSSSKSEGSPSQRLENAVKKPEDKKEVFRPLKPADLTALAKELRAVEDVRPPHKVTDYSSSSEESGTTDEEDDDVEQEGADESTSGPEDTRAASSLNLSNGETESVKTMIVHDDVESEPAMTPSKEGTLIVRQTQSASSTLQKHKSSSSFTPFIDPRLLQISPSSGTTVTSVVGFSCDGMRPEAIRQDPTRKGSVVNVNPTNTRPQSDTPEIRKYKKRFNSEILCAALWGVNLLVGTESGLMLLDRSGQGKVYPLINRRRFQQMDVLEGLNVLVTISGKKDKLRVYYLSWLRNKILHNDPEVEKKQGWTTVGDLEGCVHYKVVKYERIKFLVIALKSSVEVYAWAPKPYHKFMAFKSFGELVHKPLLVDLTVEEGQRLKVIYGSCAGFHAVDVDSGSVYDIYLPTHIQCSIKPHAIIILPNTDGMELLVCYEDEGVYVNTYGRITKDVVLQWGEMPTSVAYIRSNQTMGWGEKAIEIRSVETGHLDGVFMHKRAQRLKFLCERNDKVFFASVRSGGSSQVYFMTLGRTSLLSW
# protocol_description: binding to VI16742 beads (HeLa lysate, SILAC MS)
# measurement_setup: immobilized VI16742

{"compound": "CC(C)n1c(=O)ccc2cnc(Nc3ccc(OCCN)cc3)nc21 [V16742]", "test_system": "HGK/ZC1 (MAP4K4, IPI00604647) (Homo sapiens)", "Ki / µM": 75.7}

====

# test_system: YES (YES1) (Homo sapiens, UniProt P07947)
# Construct: endogenous in cells
# Sequence (P07947 whole entry): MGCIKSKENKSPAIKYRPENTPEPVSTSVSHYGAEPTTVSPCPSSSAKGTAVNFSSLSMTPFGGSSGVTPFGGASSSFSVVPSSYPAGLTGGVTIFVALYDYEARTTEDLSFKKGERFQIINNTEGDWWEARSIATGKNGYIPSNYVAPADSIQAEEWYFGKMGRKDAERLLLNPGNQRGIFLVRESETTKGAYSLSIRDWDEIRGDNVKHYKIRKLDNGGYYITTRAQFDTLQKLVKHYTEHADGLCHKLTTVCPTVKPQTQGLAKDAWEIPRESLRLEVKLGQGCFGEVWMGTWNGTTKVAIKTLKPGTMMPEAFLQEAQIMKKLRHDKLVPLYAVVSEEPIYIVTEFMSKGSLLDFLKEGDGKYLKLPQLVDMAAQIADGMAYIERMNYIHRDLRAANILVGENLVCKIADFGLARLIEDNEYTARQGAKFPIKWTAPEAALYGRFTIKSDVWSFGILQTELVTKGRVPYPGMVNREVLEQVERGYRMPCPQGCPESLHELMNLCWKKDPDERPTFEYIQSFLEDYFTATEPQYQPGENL
# protocol_description: binding to AX14596 beads (HeLa lysate, SILAC MS)
pKi: −log10 of the molar value.
recorded_endpoint: pKi

{"chemical_smiles": "COc1cc2ncnc(Nc3ccc(F)c(Cl)c3)c2cc1OCCCN", "recorded_endpoint": "pKi", "numeric_readout": 3.18}

====

# test_system: BLMH (Homo sapiens, UniProt Q13867)
# Construct: endogenous in cells; host or cells: HeLa S3
# Sequence (Q13867 1-455): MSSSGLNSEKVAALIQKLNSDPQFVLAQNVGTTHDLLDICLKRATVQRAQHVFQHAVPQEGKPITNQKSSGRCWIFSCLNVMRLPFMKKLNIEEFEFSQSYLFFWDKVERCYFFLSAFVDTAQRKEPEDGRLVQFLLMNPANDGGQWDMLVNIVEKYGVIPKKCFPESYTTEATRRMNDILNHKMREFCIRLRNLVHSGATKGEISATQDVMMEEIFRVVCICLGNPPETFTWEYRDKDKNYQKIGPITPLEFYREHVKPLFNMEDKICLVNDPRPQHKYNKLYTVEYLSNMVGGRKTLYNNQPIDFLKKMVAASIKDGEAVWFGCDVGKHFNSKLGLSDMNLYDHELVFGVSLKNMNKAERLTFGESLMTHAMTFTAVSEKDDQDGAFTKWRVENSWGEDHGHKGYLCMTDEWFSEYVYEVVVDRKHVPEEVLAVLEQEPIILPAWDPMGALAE
# protocol_description: gefitinib competition against AX14596 beads (HeLa lysate, SILAC MS)
# Assay type: binding
# measurement_setup: read-out: Ki (Gef)
pKi: −log10 of the molar value.
recorded_endpoint: pKi

{"chemical_smiles": "COc1cc2ncnc(Nc3ccc(F)c(Cl)c3)c2cc1OCCCN1CCOCC1", "numeric_readout": 7.11}
